- Format: in vivo, healthy Korean male volunteers
- RUN CONDITIONS: male, human, plasma, po, 50 mg, C max,ss, mean (SD), plasma; day 6; gemigliptin 50 mg once daily only; oral
PROPERTY: Cmax (ng/mL)
Your answer is read as ng/mL, so omit the unit and give the number.

// query Suppose we examine the compound `N[C@@H](CC(=O)N1CCc2c(nc(C(F)(F)F)nc2C(F)(F)F)C1)CN1CC(F)(F)CCC1=O` ; what Cmax value has been reported?
// result 80.2

* * *

- Type: in vivo, healthy Korean male volunteers
- RUN CONDITIONS: male, human, plasma, oral, 50 mg, t max,ss, median (min–max), plasma; day 6; gemigliptin 50 mg once daily only
PROPERTY: t max (h)
Your answer is read as h, so omit the unit and give the number.

// query Suppose we examine the compound `N[C@@H](CC(=O)N1CCc2c(nc(C(F)(F)F)nc2C(F)(F)F)C1)CN1CC(F)(F)CCC1=O` ; what t max value has been reported?
// result 1.5
